molecular target: GHSR-1a (HEK293/GHSR1a cell line) (Homo sapiens); construct: expressed in transfected cells; host or cells: HEK293/GHSR1a cell line; test: Ghrelin antagonist potency (IC50) with calcium FLIPR assay, ghrelin 10 nM; type: cell-based; details: HEK293/GHSR1a, ghrelin 10 nM, read-out: Activity IC50 (ghrelin antagonist potency)
Sequence (Q92847 whole entry): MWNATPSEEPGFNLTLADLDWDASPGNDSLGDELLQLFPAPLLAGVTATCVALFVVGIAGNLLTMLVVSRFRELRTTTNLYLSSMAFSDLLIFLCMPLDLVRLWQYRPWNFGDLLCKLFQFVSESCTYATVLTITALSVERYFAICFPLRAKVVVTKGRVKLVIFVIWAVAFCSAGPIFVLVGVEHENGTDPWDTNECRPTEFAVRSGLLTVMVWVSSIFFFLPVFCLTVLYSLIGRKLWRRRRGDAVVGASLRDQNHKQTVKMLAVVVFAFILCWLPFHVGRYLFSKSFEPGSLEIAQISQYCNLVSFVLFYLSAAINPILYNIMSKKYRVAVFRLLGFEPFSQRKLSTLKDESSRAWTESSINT
What IC50 was measured for each of the following?
Unit nM implied. Number only.

For this molecule ( CC(NC(=O)Nc1ccc(S(=O)(=O)Nc2ccc3c(c2)CCN(C)C3)cc1)c1cccc(Cl)c1Cl (stereo not shown) [H1333] ), measured IC50 is 2.24

For this molecule ( CCN(CC)C1CCC(CS(=O)(=O)c2ccc(NC(=O)NC(C)c3cccc(Cl)c3Cl)cc2)CC1 (stereo not shown) [H1372] ), measured IC50 is 18200

For this molecule ( CC1Cc2cc(CS(=O)(=O)c3ccc(NC(=O)NC(C)c4cccc(Cl)c4Cl)c(F)c3)ccc2CN1 (stereo not shown) [H1401] ), measured IC50 is 3.4

For this molecule ( CCc1ccc(Cl)c(C(=O)NC(=O)Nc2ccc(S(=O)(=O)Cc3ccc(CO)cc3)cc2)c1 [H1255] ), measured IC50 is 2330

For this molecule ( CC(NC(=O)Nc1ccc(S(=O)(=O)Cc2cccc(CN)c2)cc1)c1ccccc1 (stereo not shown) [H1290] ), measured IC50 is 3410

For this molecule ( CC(NC(=O)Nc1ccc(S(=O)(=O)Cc2ccc3c(c2)CNC3)cc1)c1cccnc1 (stereo not shown) [H1273] ), measured IC50 is 1030

For this molecule ( CC(NC(=O)Nc1ccc(S(=O)(=O)Cc2cc3c(c(C(F)(F)F)c2)CNCC3)cc1F)c1cccc(Cl)c1Cl (stereo not shown) [H1400] ), measured IC50 is 70.5

For this molecule ( CC(NC(=O)Nc1ccc(S(=O)(=O)Cc2ccc3c(c2)CNC3)cc1)c1cc(F)cc(F)c1 (stereo not shown) [H1445] ), measured IC50 is 23.8

For this molecule ( CC(NC(=O)Nc1ccc(S(=O)(=O)Cc2ccc3c(c2)CN(C)C3)cc1)c1ccccn1 (stereo not shown) [H1307] ), measured IC50 is 2300

For this molecule ( C[C@H](NC(=O)Nc1ccc(S(=O)(=O)Nc2ccc3c(c2)CCN(C)C3)cc1)c1ccccc1 [H1315] ), measured IC50 is 301

For this molecule ( CC(NC(=O)N(C)c1ccc(S(=O)(=O)Cc2ccc3c(c2)CN(C)C3)cc1)c1ccccc1 (stereo not shown) [H1377] ), measured IC50 is 5520

For this molecule ( CC(NC(=O)Nc1ccc(S(=O)(=O)Cc2ccc3c(c2)CNC3)cc1)c1ccccn1 (stereo not shown) [H1289] ), measured IC50 is 542

For this molecule ( CC(NC(=O)Nc1ccc(S(=O)(=O)Cc2nc3c(s2)CN(C)CC3)cc1)c1cccc(Cl)c1Cl (stereo not shown) [H1379] ), measured IC50 is 44.3

For this molecule ( COc1cc(N2C[C@@H](C)N[C@@H](C)C2)ccc1NS(=O)(=O)c1ccc(NC(=O)N[C@H](C)c2cccc(Cl)c2Cl)cc1 [H1362] ), measured IC50 is 1550

For this molecule ( COc1cc(S(=O)(=O)Cc2ccc3c(c2)CN(C)C3)ccc1NC(=O)NC(C)c1cccc(Cl)c1Cl (stereo not shown) [H1427] ), measured IC50 is 3.8

For this molecule ( COc1cc(S(=O)(=O)Cc2ccc(CO)cc2)ccc1NC(=O)NC(C)c1ccccc1 (stereo not shown) [H1433] ), measured IC50 is 3120
